tested on: 559 E. faecalis (GSE); assay: MIC, broth microdilution in Meuller-Hinton broth (NCCLS); type: cell-based, Enterococcus faecalis; details: glycopeptide-sensitive clinical isolate
The following molecules are shown together with reported MIC 559 E. faecalis (GSE) values.

[
  {
    "MOLECULE": "CCCCOc1ccc(CNCC(=O)NC2(C)CC(OC3C(Oc4c5cc6cc4Oc4ccc(cc4Cl)C(O)C(NC(=O)C(CC(C)C)NC)C(=O)NC(CC(N)=O)C(=O)NC6C(=O)NC4C(=O)NC(C(=O)NC(C(=O)O)c6cc(O)cc(O)c6-c6cc4ccc6O)C(OC4CC(C)(N)C(O)C(C)O4)c4ccc(cc4)O5)OC(CO)C(O)C3O)OC(C)C2O)cc1 (stereo not drawn)",
    "UNIT_OF_MEASURE": "µg/mL",
    "MIC 559 E. faecalis (GSE)": 2
  },
  {
    "MOLECULE": "CNC(CC(C)C)C(=O)NC1C(=O)NC(CC(N)=O)C(=O)NC2C(=O)NC3C(=O)NC(C(=O)NC(C(=O)O)c4cc(O)cc(O)c4-c4cc3ccc4O)C(OC3CC(C)(N)C(O)C(C)O3)c3ccc(cc3)Oc3cc2cc(c3OC2OC(CO)C(O)C(O)C2OC2CC(C)(NC(=O)CNCc3cn(Cc4ccccc4)c4ccccc34)C(O)C(C)O2)Oc2ccc(cc2Cl)C1O (stereo not drawn)",
    "UNIT_OF_MEASURE": "µg/mL",
    "MIC 559 E. faecalis (GSE)": 2
  },
  {
    "MOLECULE": "CCCCc1ccc(CNCC(=O)NC2(C)CC(OC3C(Oc4c5cc6cc4Oc4ccc(cc4Cl)C(O)C(NC(=O)C(CC(C)C)NC)C(=O)NC(CC(N)=O)C(=O)NC6C(=O)NC4C(=O)NC(C(=O)NC(C(=O)NC)c6cc(O)cc(O)c6-c6cc4ccc6O)C(OC4CC(C)(N)C(O)C(C)O4)c4ccc(cc4)O5)OC(CO)C(O)C3O)OC(C)C2O)cc1 (stereo not drawn)",
    "UNIT_OF_MEASURE": "µg/mL",
    "MIC 559 E. faecalis (GSE)": 2
  }
]
